Assayed Target: h-GABA-A α5β3γ2 (Homo sapiens (Human), UniProt P18507+P31644)
Protocol Notes: Two-electrode voltage clamp electrophysiology in Xenopus oocytes expressing GABAA receptors, modulation of GABA EC20 current
Format: cell-based
Condition Description: Xenopus oocytes, GABA EC20, test compound at approx. 30 fold its Ki
Measurement Name: Fold increase h-GABA-A α5β3γ2 oocyte
Please respond with just the number, no unit label.

# Molecule, Value Observed
measured = [
    ("Cc1ccc(-c2noc(C)c2COc2nnc(C(=O)NC3CCOCC3)cc2C)cn1 [Example 71]", 1.61),
]

Entry Cc1ccc(-c2noc(C)c2COc2ccc(C(=O)NC3(C)CCC3)nn2)cn1 [Example 118] , Fold increase h-GABA-A α5β3γ2 oocyte reported as 1.88

Entry Cc1ccc(-c2noc(C)c2COc2ccc(C(=O)NC3COC3)nn2)cn1 [Example 35] , Fold increase h-GABA-A α5β3γ2 oocyte reported as 1.82

====

Assayed Target: h-GABA-A α5β3γ2 (Homo sapiens (Human), UniProt P18507+P31644)
Protocol Notes: [3H]flumazenil competition binding assay, membranes of HEK293 cells expressing human GABAA receptors
Condition Description: displacement of [3H]flumazenil 0.5 nM, HEK293 cells expressing human receptors, mean of two determinations; read-out: Ki h-GABA-A α5β3γ2
// reported Ki per item
Numeric only. Scale: nM

# Compound, Ki / nM
measured = [
    ("Cc1ccc(-c2noc(C)c2COc2ccc(C(=O)N[C@H]3C[C@@H](OC4CC4)C3)nn2)cn1 [Example 176]", 12.7),
    ("Cc1ccc(-c2noc(C)c2COc2ccc(C(=O)NC3CC3)nn2)cn1 [Example 26]", 5.2),
    ("Cc1ccc(-c2noc(C)c2COc2ccc(C(=O)NC3(C)CCOCC3)nn2)cn1 [Example 97]", 13.6),
]

Now turn to the next compound.
Entry Cc1ccc(-c2noc(C)c2COc2ccc(C(=O)NC(C)C)nn2)cn1 [Example 38] , Ki reported as 7.5

====

Assayed Target: h-GABA-A α5β3γ2 (Homo sapiens (Human), UniProt P18507+P31644)
Protocol Notes: Two-electrode voltage clamp electrophysiology in Xenopus oocytes expressing GABAA receptors, modulation of GABA EC20 current
Assay type: cell-based
Condition Description: % modulation of GABA EC20 = 100*(Fold increase−1), Xenopus oocytes
Measurement Name: Efficacy (GABA) % (%)
Numeric only. Scale: %

Previously resolved entries follow.
# Compound, Value Observed
records = [
    ("CCC[C@@H](CO)NC(=O)c1ccc(OCc2c(-c3ccc(C)nc3)noc2C(F)F)nc1 [Example 125]", 142),
    ("Cc1ccc(-c2noc(C)c2COc2ccc(C(=O)NC3CCS(=O)(=O)C3)nn2)cn1 (racemic) [Example 36]", 65),
    ("Cc1ccc(-c2noc(C3CC3)c2COc2ccc(C(=O)N[C@H]3CCOC3)nn2)cn1 [Example 182]", 141),
    ("Cc1onc(-c2ccc(Cl)nc2)c1COc1ccc(C(=O)NC2CCOCC2)nn1 [Example 159]", 55),
    ("COc1ccc(-c2noc(C)c2COc2ccc(C(=O)NC3CCOCC3)cn2)cn1 [Example 137]", 55),
]

Entry Cc1ccc(-c2noc(C)c2COc2ccc(C(=O)N[C@@H]3CCCC[C@H]3O)cn2)cn1 [Example 132] , Efficacy (GABA) % reported as 64

Entry Cc1ccc(-c2noc(C)c2COc2ccc(C(=O)N3CC(C)(O)C3)nn2)cn1 [Example 56] , Efficacy (GABA) % reported as 64

Entry Cc1ccc(-c2noc(C)c2COc2ccc(C(=O)NC3(C)CCSCC3)nn2)cn1 [Example 110] , Efficacy (GABA) % reported as 65

Entry Cc1ccc(-c2noc(C)c2COc2ccc(C(=O)NC3CCS(=O)(=O)CC3)nn2)cn1 [Example 30] , Efficacy (GABA) % reported as 94

Entry Cc1onc(-c2ccc(C3CC3)nc2)c1COc1ccc(C(=O)NC2CCOCC2)cn1 [Example 128] , Efficacy (GABA) % reported as 107

Entry Cc1ccc(-c2noc(C)c2COc2ccc(C(=O)NC3CCOCC3)cn2)nn1 [Example 108] , Efficacy (GABA) % reported as 20

Entry Cc1ccc(-c2noc(C)c2COc2ccc(C(=O)NC3(C)CCC3)nn2)cn1 [Example 118] , Efficacy (GABA) % reported as 88

Numbers sourced from patent US20240279218A1.
